Conditions: 348.15 K; 101.33 kPa; Liquid; Cone and plate viscometry
parameter: viscosity (mPa·s)

compound="C[N+](C)(C)CCO.NCC(=O)[O-] [2-hydroxy-N,N,N-trimethylethanaminium glycinate]" parameter=viscosity test_value=4.3

a: C[C@H](N)C(=O)[O-].C[N+](C)(C)CCO [2-hydroxy-N,N,N-trimethylethanaminium L-alaninate]
b: C[N+](C)(C)CCO.NCCC(=O)[O-] [2-hydroxy-N,N,N-trimethylethanaminium β-alaninate]
c: C[N+](C)(C)CCO.O=C([O-])[C@@H]1CCCN1 [2-hydroxy-N,N,N-trimethylethanaminium L-prolinate]
d: C[N+](C)(C)CCO.N[C@@H](CO)C(=O)[O-] [2-hydroxy-N,N,N-trimethylethanaminium L-serinate]
In: Form: Sort by [viscosity] Order [ ascending ] Output the labels ranked as instructed.
Out: a, c, b, d

----------
Settings: 333.15 K; 101.33 kPa; Liquid; Cone and plate viscometry
parameter: viscosity (mPa·s)

// solved cases for viscosity follow
molecule="C[N+](C)(C)CCO.NCC(=O)[O-] [2-hydroxy-N,N,N-trimethylethanaminium glycinate]" parameter=viscosity test_value=10.4
molecule="C[N+](C)(C)CCO.N[C@@H](CO)C(=O)[O-] [2-hydroxy-N,N,N-trimethylethanaminium L-serinate]" parameter=viscosity test_value=346.6
molecule="C[N+](C)(C)CCO.NCCC(=O)[O-] [2-hydroxy-N,N,N-trimethylethanaminium β-alaninate]" parameter=viscosity test_value=220.7

P: C[N+](C)(C)CCO.O=C([O-])[C@@H]1CCCN1 [2-hydroxy-N,N,N-trimethylethanaminium L-prolinate]
Q: C[C@H](N)C(=O)[O-].C[N+](C)(C)CCO [2-hydroxy-N,N,N-trimethylethanaminium L-alaninate]
In: Which one would you say has the larger viscosity value: P , or Q ? // output: label of the selected item
Out: P
(P: 163.7 mPa·s, Q: 14 mPa·s)

----------
Assay: refractive index (Na D-line) (dimensionless)
Settings: 323.15 K; 101.33 kPa; Liquid; Standard Abbe refractometry
parameter: refractive index

molecule="C[N+](C)(C)CCO.NCCC(=O)[O-] [2-hydroxy-N,N,N-trimethylethanaminium β-alaninate]" test_value=1.5266
molecule="C[N+](C)(C)CCO.N[C@@H](CO)C(=O)[O-] [2-hydroxy-N,N,N-trimethylethanaminium L-serinate]" test_value=1.5382
molecule="C[C@H](N)C(=O)[O-].C[N+](C)(C)CCO [2-hydroxy-N,N,N-trimethylethanaminium L-alaninate]" test_value=1.5084
molecule="C[N+](C)(C)CCO.NCC(=O)[O-] [2-hydroxy-N,N,N-trimethylethanaminium glycinate]" test_value=1.5171
molecule="C[N+](C)(C)CCO.O=C([O-])[C@@H]1CCCN1 [2-hydroxy-N,N,N-trimethylethanaminium L-prolinate]" test_value=1.5355

----------
Conditions: 328.15 K; 101.33 kPa; Liquid; Cone and plate viscometry
parameter: viscosity (mPa·s)

// solved cases for viscosity follow
compound="C[N+](C)(C)CCO.NCCC(=O)[O-] [2-hydroxy-N,N,N-trimethylethanaminium β-alaninate]" parameter=viscosity test_value=322.4
compound="C[N+](C)(C)CCO.NCC(=O)[O-] [2-hydroxy-N,N,N-trimethylethanaminium glycinate]" parameter=viscosity test_value=14.3
compound="C[N+](C)(C)CCO.O=C([O-])[C@@H]1CCCN1 [2-hydroxy-N,N,N-trimethylethanaminium L-prolinate]" parameter=viscosity test_value=307

I: C[N+](C)(C)CCO.N[C@@H](CO)C(=O)[O-] [2-hydroxy-N,N,N-trimethylethanaminium L-serinate]
II: C[C@H](N)C(=O)[O-].C[N+](C)(C)CCO [2-hydroxy-N,N,N-trimethylethanaminium L-alaninate]
In: Would you kindly point out which of I and II has the smaller viscosity figure? // output: label of the selected item
Out: II

----------
Details: 338.15 K; 101.33 kPa; Liquid; conductivity meter (DDJS-308A)
parameter: electrical conductivity (S/m)

// solved cases for electrical conductivity follow
compound="C[N+](C)(C)CCO.O=C([O-])[C@@H]1CCCN1 [2-hydroxy-N,N,N-trimethylethanaminium L-prolinate]" parameter="electrical conductivity" test_value=0.00552
compound="C[N+](C)(C)CCO.NCC(=O)[O-] [2-hydroxy-N,N,N-trimethylethanaminium glycinate]" parameter="electrical conductivity" test_value=0.0781
compound="C[N+](C)(C)CCO.N[C@@H](CO)C(=O)[O-] [2-hydroxy-N,N,N-trimethylethanaminium L-serinate]" parameter="electrical conductivity" test_value=0.0266

A: C[N+](C)(C)CCO.NCCC(=O)[O-] [2-hydroxy-N,N,N-trimethylethanaminium β-alaninate]
B: C[C@H](N)C(=O)[O-].C[N+](C)(C)CCO [2-hydroxy-N,N,N-trimethylethanaminium L-alaninate]
In: Which one would you say has the larger electrical conductivity value: A , or B ? // output: label of the selected item
Out: B
(B: 0.0518 S/m, A: 0.0295 S/m)

----------
Conditions: 298.15 K; 101.33 kPa; Liquid; conductivity meter (DDJS-308A)
parameter: electrical conductivity (S/m)

compound="C[N+](C)(C)CCO.NCCC(=O)[O-] [2-hydroxy-N,N,N-trimethylethanaminium β-alaninate]" test_value=0.00071

A: C[C@H](N)C(=O)[O-].C[N+](C)(C)CCO [2-hydroxy-N,N,N-trimethylethanaminium L-alaninate]
B: C[N+](C)(C)CCO.N[C@@H](CO)C(=O)[O-] [2-hydroxy-N,N,N-trimethylethanaminium L-serinate]
C: C[N+](C)(C)CCO.NCC(=O)[O-] [2-hydroxy-N,N,N-trimethylethanaminium glycinate]
D: C[N+](C)(C)CCO.O=C([O-])[C@@H]1CCCN1 [2-hydroxy-N,N,N-trimethylethanaminium L-prolinate]
In: Please rank these compounds by electrical conductivity in descending order. Output the labels ranked as instructed.
Out: C, A, B, D

----------
Settings: 348.15 K; 101.33 kPa; Liquid; conductivity meter (DDJS-308A)
parameter: electrical conductivity (S/m)

// solved cases for electrical conductivity follow
compound="C[N+](C)(C)CCO.NCCC(=O)[O-] [2-hydroxy-N,N,N-trimethylethanaminium β-alaninate]" test_value=0.0496
compound="C[N+](C)(C)CCO.NCC(=O)[O-] [2-hydroxy-N,N,N-trimethylethanaminium glycinate]" test_value=0.122

I: C[N+](C)(C)CCO.O=C([O-])[C@@H]1CCCN1 [2-hydroxy-N,N,N-trimethylethanaminium L-prolinate]
II: C[C@H](N)C(=O)[O-].C[N+](C)(C)CCO [2-hydroxy-N,N,N-trimethylethanaminium L-alaninate]
In: Which one would you say has the larger electrical conductivity value: I , or II ? // output: label of the selected item
Out: II

----------
Details: 343.15 K; 101.33 kPa; Liquid; Cone and plate viscometry
parameter: viscosity (mPa·s)

// solved cases for viscosity follow
molecule="C[N+](C)(C)CCO.N[C@@H](CO)C(=O)[O-] [2-hydroxy-N,N,N-trimethylethanaminium L-serinate]" test_value=167.5
molecule="C[C@H](N)C(=O)[O-].C[N+](C)(C)CCO [2-hydroxy-N,N,N-trimethylethanaminium L-alaninate]" test_value=7.4
molecule="C[N+](C)(C)CCO.O=C([O-])[C@@H]1CCCN1 [2-hydroxy-N,N,N-trimethylethanaminium L-prolinate]" test_value=70.1

A: C[N+](C)(C)CCO.NCCC(=O)[O-] [2-hydroxy-N,N,N-trimethylethanaminium β-alaninate]
B: C[N+](C)(C)CCO.NCC(=O)[O-] [2-hydroxy-N,N,N-trimethylethanaminium glycinate]
In: Which one would you say has the larger viscosity value: A , or B ? // output: label of the selected item
Out: A
(A: 112 mPa·s, B: 5.5 mPa·s)

----------
Assay: refractive index (Na D-line) (dimensionless)
Conditions: 333.15 K; 101.33 kPa; Liquid; Standard Abbe refractometry
parameter: refractive index

compound="C[C@H](N)C(=O)[O-].C[N+](C)(C)CCO [2-hydroxy-N,N,N-trimethylethanaminium L-alaninate]" test_value=1.506
compound="C[N+](C)(C)CCO.N[C@@H](CO)C(=O)[O-] [2-hydroxy-N,N,N-trimethylethanaminium L-serinate]" test_value=1.5349
compound="C[N+](C)(C)CCO.NCCC(=O)[O-] [2-hydroxy-N,N,N-trimethylethanaminium β-alaninate]" test_value=1.5249
compound="C[N+](C)(C)CCO.NCC(=O)[O-] [2-hydroxy-N,N,N-trimethylethanaminium glycinate]" test_value=1.5148
compound="C[N+](C)(C)CCO.O=C([O-])[C@@H]1CCCN1 [2-hydroxy-N,N,N-trimethylethanaminium L-prolinate]" test_value=1.5329

----------
Conditions: 313.15 K; 101.33 kPa; Liquid; Vibrating tube method
parameter: mass density (kg/m3)

compound="C[N+](C)(C)CCO.N[C@@H](CO)C(=O)[O-] [2-hydroxy-N,N,N-trimethylethanaminium L-serinate]" test_value=1182.9
compound="C[N+](C)(C)CCO.NCCC(=O)[O-] [2-hydroxy-N,N,N-trimethylethanaminium β-alaninate]" test_value=1111.77
compound="C[C@H](N)C(=O)[O-].C[N+](C)(C)CCO [2-hydroxy-N,N,N-trimethylethanaminium L-alaninate]" test_value=1104.04
compound="C[N+](C)(C)CCO.NCC(=O)[O-] [2-hydroxy-N,N,N-trimethylethanaminium glycinate]" test_value=1136.7
compound="C[N+](C)(C)CCO.O=C([O-])[C@@H]1CCCN1 [2-hydroxy-N,N,N-trimethylethanaminium L-prolinate]" test_value=1112.49
